System: normal primary NK cells, pool 1 (3 donors) (IL-2 2.5 ng/mL)
Test: drug sensitivity score (DSS) (DSS units); higher = more sensitive; extreme values may be limits of the assay
Details: 72 h
Everything with drug sensitivity score lower than 0.8 is N; everything else, including exactly 0.8, is Y.

compound	system.name	label
CCN(CC)CCOc1ccc(C(=C(Cl)c2ccccc2)c2ccccc2)cc1 [Clomifene] (max concentration tested 10000 nM)	normal primary NK cells, pool 1 (3 donors) (IL-2 2.5 ng/mL)	Y
COc1cccc2c1C(=O)c1c(O)c3c(c(O)c1C2=O)C[C@@](O)(/C(CO)=N/NC(=O)CCCCCN1C(=O)C=CC1=O)C[C@@H]3O[C@H]1C[C@H](N)[C@H](O)[C@H](C)O1 [Aldoxorubicin] (max concentration tested 1000 nM)	normal primary NK cells, pool 1 (3 donors) (IL-2 2.5 ng/mL)	Y
Cc1c(N)nc([C@H](CC(N)=O)NC[C@H](N)C(N)=O)nc1C(=O)N[C@H](C(=O)N[C@H](C)[C@@H](O)[C@H](C)C(=O)N[C@H](C(=O)NCCc1nc(-c2nc(C(=O)NCCC[S+](C)C)cs2)cs1)[C@@H](C)O)[C@@H](OC1OC(CO)C(O)C(O)C1OC1OC(CO)C(O)C(OC(N)=O)C1O)c1cnc[nH]1 (some centres not stated) [Bleomycin] (max concentration tested 10000 nM)	normal primary NK cells, pool 1 (3 donors) (IL-2 2.5 ng/mL)	Y

Query: Is drug sensitivity score at least 0.8? Consider CC(C)(C)c1nc(-c2cccc(NS(=O)(=O)c3c(F)cccc3F)c2F)c(-c2ccnc(N)n2)s1 [Dabrafenib] (max concentration tested 2500 nM)
Response: N

Query: Answer whether drug sensitivity score of CN(C)CCN1C(=O)c2cccc3cc(N)cc(c23)C1=O [Amonafide] (max concentration tested 10000 nM) is greater than or equal to 0.8.
Response: Y

Query: For this compound, is measured drug sensitivity score 0.8 or higher? CCN(CC)CCNC(=O)c1c(C)[nH]c(/C=C2\C(=O)Nc3ccc(F)cc32)c1C [Sunitinib] (max concentration tested 1000 nM)
Response: N

* * *

Test system: DERL-7 (IL-2 2.5 ng/mL)
Assay: drug sensitivity score (DSS) (DSS units); higher = more sensitive; extreme values may be limits of the assay
Conditions: 72 h
Provide the recorded drug sensitivity score for the entries that follow.
Numbers only.

Solved entries:
compound	number
Cc1cccc(-c2nn3c(c2-c2ccnc4ccc(C(N)=O)cc24)CCC3)n1 [Galunisertib] (max concentration tested 1000 nM)	0
C[C@@H]1CN(CC(=O)Nc2ccc3c(c2)Cc2cccc(-c4cc(=O)cc(N5CCOCC5)o4)c2S3)C[C@H](C)O1 (max concentration tested 25000 nM)	6.89
N#CC1(c2ccc(NC(=O)c3cccnc3NCc3ccncc3)cc2)CCCC1 [Apatinib] (max concentration tested 10000 nM)	0
CCCCCCCCc1ccc(CCC(N)(CO)CO)cc1 [Fingolimod] (max concentration tested 10000 nM)	7.91
CN(N=O)C(=O)N[C@@H](C=O)[C@@H](O)[C@H](O)[C@H](O)CO [Streptozocin] (max concentration tested 10000 nM)	0
C[C@]12O[C@H](C[C@]1(O)CO)n1c3ccccc3c3c4c(c5c6ccccc6n2c5c31)CNC4=O [Lestaurtinib] (max concentration tested 1000 nM)	17.9

Go through the list and state drug sensitivity score for each entry.
1. CC1(C)NC(=O)N(c2ccc([N+](=O)[O-])c(C(F)(F)F)c2)C1=O [Nilutamide] (max concentration tested 10000 nM)
2. CCn1c(C(=O)N(C2CC2)C2CC2)cc2c3c(ncn3C)c(Nc3cc(C)n(C)n3)nc21 (max concentration tested 10000 nM)
3. CC(C)(C)NC(=O)[C@H]1CC[C@H]2[C@@H]3CC[C@H]4NC(=O)C=C[C@]4(C)[C@H]3CC[C@]12C [Finasteride] (max concentration tested 10000 nM)
4. O=C(CCCCCCNC(=O)c1cnc(N(c2ccccc2)c2ccccc2)nc1)NO [Rocilinostat] (max concentration tested 10000 nM)
5. CC(C)N(C[C@H]1O[C@@H](n2cnc3c(N)ncnc32)[C@H](O)[C@@H]1O)[C@H]1C[C@@H](CCc2nc3cc(C(C)(C)C)ccc3[nH]2)C1 [EPZ-5676] (max concentration tested 1000 nM)

Response:
1: 0; 2: 4.87; 3: 0.06; 4: 8.01; 5: 0

Query: // lookup drug sensitivity score for Nc1nc(Cl)nc2c1ncn2[C@@H]1O[C@H](CO)[C@@H](O)[C@@H]1F [Clofarabine] (max concentration tested 10000 nM)
Response: 32.5
